Here, each record is paired with measured protease activity in the course of time of storage at 37° C. data.
biological target: Savinase® 16.0L (Lederbergia lenta, UniProt P29600); construct: purchased Sigma-Aldrich; test: Protease storage stability in liquid formulations at 37° C. (Suc-AAPF-pNA assay); format: biochemical; conditions: base formulation I, 2.5 wt% compound, 0.7 wt% Savinase 16.0 L; 3 d
The reply should be a number in %, with the unit left off.

# Molecule, Numeric Result
rows = [
    ("CCCCOC(=O)CC(CC(=O)OCCCC)(OC(C)=O)C(=O)OCCCC [A.4, Acetyltributylcitrate]", 100),
    ("CCCOC(=O)CC(O)(CC(=O)OCCC)C(=O)OCCC [A.2, Tripropylcitrate]", 100),
]

Continue with the next molecule.
Form field: protease activity in the course of time of storage at 37° C. recorded for CCOC(=O)C(=O)OCC [B.3, diethyloxalate, reference compound] with Savinase® 16.0L (Lederbergia lenta, UniProt P29600) (enter value)
90

* * *

Biological target: Savinase® 16.0L (Lederbergia lenta)
Construct: purchased Sigma-Aldrich
Sequence (P29600 1-269): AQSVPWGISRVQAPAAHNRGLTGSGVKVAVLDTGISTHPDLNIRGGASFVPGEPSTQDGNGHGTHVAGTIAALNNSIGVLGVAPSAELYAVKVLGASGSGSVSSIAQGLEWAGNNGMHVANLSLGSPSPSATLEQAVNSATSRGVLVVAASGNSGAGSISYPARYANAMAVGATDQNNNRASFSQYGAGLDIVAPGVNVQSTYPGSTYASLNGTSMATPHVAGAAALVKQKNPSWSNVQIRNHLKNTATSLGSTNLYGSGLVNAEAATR
Assay: Protease storage stability in liquid formulations at 37° C. (Suc-AAPF-pNA assay)
Type: biochemical
Conditions: base formulation II, 2.5 wt% compound, 0.7 wt% Savinase 16.0 L; 28 d
Where a name gives a salt, the structure may show the parent alone.
Lab note - cut at 80% for protease activity in the course of time of storage at 37° C.: criterion met if strictly below, criterion not met if not.

Consider the worked cases shown below.
# Molecule, Target Of Assay, Class
rows = [
    ("O=C(O)CC(O)(CC(=O)O)C(=O)O [B.2, citric acid trisodium salt, reference compound]", "Savinase® 16.0L (Lederbergia lenta)", "criterion met"),
    ("CCOC(=O)CC(CC(=O)OCC)(OC(C)=O)C(=O)OCC [A.5, Acetyltriethylcitrate]", "Savinase® 16.0L (Lederbergia lenta)", "criterion not met"),
    ("CC(=O)OCC(COC(C)=O)OC(C)=O [B.4, glyceroltriacetate, reference compound]", "Savinase® 16.0L (Lederbergia lenta)", "criterion met"),
    ("O=C(CC(O)(CC(=O)OCc1ccccc1)C(=O)OCc1ccccc1)OCc1ccccc1 [A.8, Tribenzylcitrate]", "Savinase® 16.0L (Lederbergia lenta)", "criterion not met"),
    ("CCOC(=O)CC(O)(CC(=O)OCC)C(=O)OCC [A.1, Triethylcitrate]", "Savinase® 16.0L (Lederbergia lenta)", "criterion not met"),
]

Okay, now this molecule:
Field: below-cutoff. Rule: recorded protease activity in the course of time of storage at 37° C. strictly less than 80%. Subject: CCOC(=O)CC(O)(CC(=O)O)C(=O)O (stereo not drawn) [A.6, Monoethylcitrate]
criterion not met

* * *

biological target: Savinase® 16.0L (Lederbergia lenta, UniProt P29600); construct: purchased Sigma-Aldrich; experiment: Protease storage stability in liquid formulations at 37° C. (Suc-AAPF-pNA assay); format: biochemical; details: base formulation III, 2.0 wt% compound, 0.7 wt% Savinase 16.0 L; 28 d
Sorting guide: entries reporting protease activity in the course of time of storage at 37° C. beneath 80% go in the Y pile, the rest go in the N pile.

# Compound, Class
records = [
    ("CCCOC(=O)CC(O)(CC(=O)OCCC)C(=O)OCCC [A.2, Tripropylcitrate]", "N"),
    ("CCOC(=O)CC(O)(CC(=O)OCC)C(=O)OCC [A.1, Triethylcitrate]", "N"),
    ("CCOC(=O)C(=O)OCC [B.3, diethyloxalate, reference compound]", "Y"),
]

Okay, now this compound:
Problem: For the compound O=C(O)CC(O)(CC(=O)O)C(=O)O [B.1, citric acid, reference compound] , is protease activity in the course of time of storage at 37° C. under 80%?
Y

* * *

Entries and their measured protease activity in the course of time of storage at 37° C. follow.
target: Savinase® 16.0L (Lederbergia lenta); construct: purchased Sigma-Aldrich; assay: Protease storage stability in liquid formulations at 37° C. (Suc-AAPF-pNA assay); format: biochemical; settings: base formulation II, 2.5 wt% compound, 0.7 wt% Savinase 16.0 L; 7 d
Counter-ions that a name gives are not always drawn.
The reply should contain only the number, in %.

Example compounds with recorded protease activity in the course of time of storage at 37° C.:
# Compound, Target Of Assay, Numeric Result
data = [
    ("CC(=O)OCC(COC(C)=O)OC(C)=O [B.4, glyceroltriacetate, reference compound]", "Savinase® 16.0L (Lederbergia lenta)", 80),
    ("CCOC(=O)CC(O)(CC(=O)OCC)C(=O)OCC [A.1, Triethylcitrate]", "Savinase® 16.0L (Lederbergia lenta)", 96),
    ("CCOC(=O)CC(CC(=O)OCC)(OC(C)=O)C(=O)OCC [A.5, Acetyltriethylcitrate]", "Savinase® 16.0L (Lederbergia lenta)", 100),
    ("O=C(O)CC(O)(CC(=O)O)C(=O)O [B.2, citric acid trisodium salt, reference compound]", "Savinase® 16.0L (Lederbergia lenta)", 82),
    ("O=C(CC(O)(CC(=O)OCc1ccccc1)C(=O)OCc1ccccc1)OCc1ccccc1 [A.8, Tribenzylcitrate]", "Savinase® 16.0L (Lederbergia lenta)", 91),
]

Next compound, please.
Any idea what protease activity in the course of time of storage at 37° C. was measured for CCOC(=O)CC(O)(CC(=O)O)C(=O)O (stereo not drawn) [A.6, Monoethylcitrate] ?
100

* * *

target: Savinase® 16.0L (Lederbergia lenta, UniProt P29600); construct: purchased Sigma-Aldrich; test: Protease storage stability in liquid formulations at 37° C. (Suc-AAPF-pNA assay); assay type: biochemical; conditions: base formulation I, 2.5 wt% compound, 0.7 wt% Savinase 16.0 L; 21 d
Readout Kind: protease activity in the course of time of storage at 37° C.
Note: a bare number is incomplete; add the unit.

Which protease activity in the course of time of storage at 37° C. value belongs to CCOC(=O)CC(CC(=O)OCC)(OC(C)=O)C(=O)OCC [A.5, Acetyltriethylcitrate] ?
85%

Request the reported protease activity in the course of time of storage at 37° C. associated with CCCCOC(=O)CC(CC(=O)OCCCC)(OC(C)=O)C(=O)OCCCC [A.4, Acetyltributylcitrate]
87%

Which protease activity in the course of time of storage at 37° C. is listed for CCCOC(=O)CC(O)(CC(=O)OCCC)C(=O)OCCC [A.2, Tripropylcitrate] ?
85%

Would you mind telling me what protease activity in the course of time of storage at 37° C. value was observed for CC(=O)OCC(COC(C)=O)OC(C)=O [B.4, glyceroltriacetate, reference compound] ?
66%

Name the recorded protease activity in the course of time of storage at 37° C. for CCOC(=O)C(=O)OCC [B.3, diethyloxalate, reference compound] .
65%

Request the reported protease activity in the course of time of storage at 37° C. associated with O=C(O)CC(O)(CC(=O)O)C(=O)O [B.1, citric acid, reference compound]
67%

What measured protease activity in the course of time of storage at 37° C. goes with CCOC(=O)CC(O)(CC(=O)OCC)C(=O)OCC [A.1, Triethylcitrate] ?
83%

* * *

Reported protease activity in the course of time of storage at 37° C. values are given for each entry in this list.
biological target: Savinase® 16.0L (Lederbergia lenta, UniProt P29600); construct: purchased Sigma-Aldrich; assay: Protease storage stability in liquid formulations at 37° C. (Suc-AAPF-pNA assay); assay type: biochemical; details: base formulation I, 2.5 wt% compound, 0.7 wt% Savinase 16.0 L; 7 d
Put down the number, then write its unit next to it.

Please review the following examples before continuing.
# Compound, Result
records = [
    ("CCOC(=O)C(=O)OCC [B.3, diethyloxalate, reference compound]", "86%"),
    ("O=C(O)CC(O)(CC(=O)O)C(=O)O [B.1, citric acid, reference compound]", "86%"),
]

GET /values?readout=protease activity in the course of time of storage at 37° C.&system=Savinase® 16.0L (Lederbergia lenta, UniProt P29600)&item= CCCOC(=O)CC(O)(CC(=O)OCCC)C(=O)OCCC [A.2, Tripropylcitrate]
94%

Any idea what protease activity in the course of time of storage at 37° C. came out for CCOC(=O)CC(O)(CC(=O)OCC)C(=O)OCC [A.1, Triethylcitrate] on Savinase® 16.0L (Lederbergia lenta, UniProt P29600)?
93%

Lab note: need protease activity in the course of time of storage at 37° C. with Savinase® 16.0L (Lederbergia lenta, UniProt P29600) for entry CC(=O)OCC(COC(C)=O)OC(C)=O [B.4, glyceroltriacetate, reference compound] , please look it up.
84%

Reported protease activity in the course of time of storage at 37° C. for Savinase® 16.0L (Lederbergia lenta, UniProt P29600), given CCOC(=O)CC(CC(=O)OCC)(OC(C)=O)C(=O)OCC [A.5, Acetyltriethylcitrate] ?
94%

Field: protease activity in the course of time of storage at 37° C. (Savinase® 16.0L (Lederbergia lenta, UniProt P29600)). Entry: CCCCOC(=O)CC(CC(=O)OCCCC)(OC(C)=O)C(=O)OCCCC [A.4, Acetyltributylcitrate]
96%
